# tested.system: ARHGEF12, Q9NZN5-2
# Sequence (Q9NZN5 other isoform, or with tags, fused parts or gaps): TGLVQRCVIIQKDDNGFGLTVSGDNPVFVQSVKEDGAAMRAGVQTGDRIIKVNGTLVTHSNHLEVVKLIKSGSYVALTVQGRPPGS
# assay.procedure: holdup assay
# Parameters: key: below the threshold = too weak to quantify, mostly under pKd 3.1 to 4
# particulars: plain residues with an end cap or a label only (N-terminal biotin on a linker: ado-ado)
test.readout: pKd
Give bare numbers.

>>> df
                        binder  test_readout  recorded_value
0  AAVENKVTDL [PLXNB1, O43157]           pKd             5.5

Read the next record carefully.
[Q] # get_value(readout='pKd', item= ILRKSTTTTV [PRR16, Q569H4] )
[A] 4.26
